Assay: gradient 5% acetonitrile 3 min, to 50% in 2 min, to 85% in 15 min, held 3 min, 100 µL/min
Conditions: column: Zorbax Extend-C18 2.1 x 50 mm; eluents: water / acetonitrile, 0.1% formic acid
ATTRIBUTE_MEASURED: RP-LC retention time (s)

Worked set:
COc1ccc(CNC(=O)C2CCCN(S(=O)(=O)c3cc(-c4noc(C)n4)cs3)C2)cc1 (centres undefined): 1040
Cc1ccc(N2CCC(NC(=O)C3CCC3)C2=O)cc1C (centres undefined): 762
CC(C)N(C(=O)Cn1c(CNC(=O)c2ccco2)nc2ccccc21)c1ccccc1: 698
CCSc1nccc2c1ccn2CC(=O)NCc1ccc(Br)cc1: 681
O=C(Cn1ccc2ccc(N3CCOCC3)nc21)NCc1ccc(F)cc1Cl: 912
N#Cc1ccccc1CN1C[C@@H](CO)[C@H](c2nc(C3CC3)no2)C1: 607
O=C(c1ccc(OCC2CCCN(C(=O)c3cccs3)C2)cc1)N1CCOCC1 (centres undefined): 620

(1) COc1cccc(-c2cc(N3CCN(C(=O)Nc4ccc5c(c4)OCCO5)CC3)ncn2)c1
(2) CCc1ccc(-c2nc(C3CC(=O)N(c4ccc(F)c(Cl)c4)C3)no2)cc1 (centres undefined)
Prompt: Lab note: check whether 1 or 2 has the lower measured RP-LC retention time. In your reply, give the label of the chosen option.
Response: 1
(1: 660 s, 2: 1200 s)
